Target: Carboxypeptidase A1 (Bos taurus, UniProt P00730)
Sequence (P00730 whole entry): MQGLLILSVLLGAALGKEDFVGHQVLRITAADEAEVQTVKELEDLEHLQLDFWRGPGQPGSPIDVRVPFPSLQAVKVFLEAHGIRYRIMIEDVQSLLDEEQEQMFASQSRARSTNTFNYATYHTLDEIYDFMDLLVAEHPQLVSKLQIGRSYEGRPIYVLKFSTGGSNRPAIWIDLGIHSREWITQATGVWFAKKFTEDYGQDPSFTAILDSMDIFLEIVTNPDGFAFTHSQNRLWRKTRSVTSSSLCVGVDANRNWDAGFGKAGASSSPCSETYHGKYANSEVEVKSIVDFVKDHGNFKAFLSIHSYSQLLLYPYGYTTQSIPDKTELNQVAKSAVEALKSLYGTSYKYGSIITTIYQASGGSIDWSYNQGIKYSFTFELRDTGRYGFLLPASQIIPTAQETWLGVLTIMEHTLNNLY
The compounds below each have a reported pKi tested on Carboxypeptidase A1 (Bos taurus, UniProt P00730); the values come from various publications.
Remember, pKi is on a log scale: it is -log10 of the molar concentration.

State its pKi for this compound: O=C(O)C(CS)NCc1cccc2ccccc12 (centres undefined) 6.09

Annotate the compound O=C(O)C(CS)Cc1ccc(Br)cc1 (centres undefined) with its measured pKi. 6.82

Find the measured pKi of O=C(O)C(CS)NC1CCCCC1 (centres undefined) and report it. 5.02

Supply pKi value. Item: O=C(O)C(CS)Cc1ccccc1F (centres undefined) 7.35
